All values here come from patent US20230049152A1.

- testedTarget: T1, human CCR8 (human, UniProt P51685 1-355)
- T1 construct: the assay field says which; also called hCCR8; huCCR8
- assayText: flow cytometry, CHO-huCCR8.Gna15 cells, relative to rb.Ab4
Reported values of Relative EC50 for individual entries
endpoint: Relative EC50

1) hu.Ab4.H8L1 (antibody, human IgG1, kappa, V domains shown) VH: EQQLLESGGGLVQPGGSLRLSCAVSGFSLSNYAMIWVRQAPGKGLEWVGTISLGGYTYYANWAKGRFTISKDSSKTTLYLQMNSLRAEDTAVYFCARARWSTDSAIYTYAFDPWGPGTLVTVSS VL: DYQMTQSPSSLSASVGDRVTITCQASQSISSYLSWYQQKPGKRPKLLIYKASTLASGVPSRFSGSGSGTDFTLTISSLQPEDFATYYCQQGYTSSNIDNIFGGGTKVEIKR : 1.03 ratio
2) hu.Ab4.H6L1 (antibody, human IgG1, kappa, V domains shown) VH: EQQLLESGGGLVQPGGSLRLSCAVSGFSLSNYAMIWVRQAPGKGLEWVGTISLGGYTYYANWAKGRFTISKDNSKTTVYLQMNSLRAEDTAVYFCARARWSTDSAIYTYAFDPWGPGTLVTVSS VL: DYQMTQSPSSLSASVGDRVTITCQASQSISSYLSWYQQKPGKRPKLLIYKASTLASGVPSRFSGSGSGTDFTLTISSLQPEDFATYYCQQGYTSSNIDNIFGGGTKVEIKR : 1.06 ratio
3) hu.Ab4.H4L1 (antibody, human IgG1, kappa, V domains shown) VH: EQQLLESGGGLVQPGGSLRLSCAVSGFSLSNYAMIWVRQAPGKGLEWVSTISLGGYTYYANWAKGRFTISKDSSKTTVYLQMNSLRAEDTAVYFCARARWSTDSAIYTYAFDPWGPGTLVTVSS VL: DYQMTQSPSSLSASVGDRVTITCQASQSISSYLSWYQQKPGKRPKLLIYKASTLASGVPSRFSGSGSGTDFTLTISSLQPEDFATYYCQQGYTSSNIDNIFGGGTKVEIKR : 0.96 ratio
4) hu.Ab4.H7L1 (antibody, human IgG1, kappa, V domains shown) VH: EQQLLESGGGLVQPGGSLRLSCAVSGFSLSNYAMIWVRQAPGKGLEWVGTISLGGYTYYANWAKGRFTISKDSSKNTVYLQMNSLRAEDTAVYFCARARWSTDSAIYTYAFDPWGPGTLVTVSS VL: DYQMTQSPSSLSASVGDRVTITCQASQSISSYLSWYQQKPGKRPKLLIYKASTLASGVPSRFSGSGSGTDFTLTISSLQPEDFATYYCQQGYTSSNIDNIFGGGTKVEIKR : 1.05 ratio
5) rb.Ab4 (antibody, V domains shown, Rabbit variable regions; also called parental rabbit antibody Ab4) VH: QSVEESGGRLVTPGTPLTLTCTVSGFSLSNYAMIWVRQAPGEGLEWVGTISLGGYTYYANWAKGRFTISKTSTTVDLKISSPTTEDTATYFCARARWSTDSAIYTYAFDPWGPGTLVTVSS VL: AYDMTQTPASVEVAVGGTVTIKCQASQSISSYLSWYQQKPGQRPELLIYKASTLASGVSSRFKGSGSGTQFTLTISDLECADAATYYCQQGYTSSNIDNIFGGGTEVVVK : 1 ratio
6) hu.Ab4.H3L1 (antibody, human IgG1, kappa, V domains shown) VH: EQQLLESGGGLVQPGGSLRLSCAASGFSLSNYAMIWVRQAPGKGLEWVGTISLGGYTYYANWAKGRFTISKDSSKTTVYLQMNSLRAEDTAVYFCARARWSTDSAIYTYAFDPWGPGTLVTVSS VL: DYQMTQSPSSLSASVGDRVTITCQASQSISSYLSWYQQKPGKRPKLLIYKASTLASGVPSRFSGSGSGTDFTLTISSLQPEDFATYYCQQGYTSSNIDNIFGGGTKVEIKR : 1 ratio
